Tested on: U2OS
Method Summary: drug sensitivity score (DSS) for viability; higher = more toxic; extreme values may be limits of the assay
Study Conditions: 72 h
Overview of recorded drug sensitivity score for various molecules
Quantity Name: drug sensitivity score

{"columns": ["Molecule", "Assay Value"],
 "data": [
  ["CN(C)C(=N)NCCC[C@H](N)C(=O)O [asymmetrical-dimethylarginine]", 0],
  ["Cc1cc(SCc2sc(-c3ccc(C(F)(F)F)c(F)c3)nc2C)ccc1OCC(=O)O [GW-0742]", 0],
  ["COc1ccc(CNC(=O)c2cc(-c3cncc(C)c3)ncc2-c2nccs2)nc1OC [MK-3697]", 0],
  ["N#Cc1ccc(-c2csc(NN=C3CCCC3)n2)cc1 [remodelin]", 0],
  ["Cc1cc(O)ccc1Cl [chlorocresol]", 0],
  ["CCC(=O)O[C@@H](O[P@@](=O)(CCCCc1ccccc1)CC(=O)N1C[C@H](C2CCCCC2)C[C@H]1C(=O)O)C(C)C [fosinopril]", 0],
  ["COC1CCN(c2cccc(-c3cc(NC(C)=O)nc(-n4nc(C)cc4C)n3)n2)CC1 [TC-G-1004]", 0],
  ["Cn1cc(-c2ccc3nnc(C(F)(F)c4ccc5ncccc5c4)n3n2)cn1", 0],
  ["CC(C)(C)/[N+]([O-])=C/c1ccc(S(=O)(=O)O)cc1S(=O)(=O)O [NXY-059]", 0],
  ["CCOC(=O)n1ccn(C)c1=S [carbimazole]", 0],
  ["NC(=O)N1c2ccccc2C=Cc2ccccc21 [carbamazepine]", 0],
  ["CNCC[C@@H](Oc1ccccc1C)c1ccccc1 [atomoxetine]", 0],
  ["C=CCOc1ccccc1OCC(O)CNC(C)C (stereo not given) [oxprenolol]", 0],
  ["COc1ccc(NC(=O)c2ccc(-c3ccc(-c4noc(C)n4)cc3C)cc2)cc1N1CCN(C)CC1", 2.5],
  ["O=C(CCCCCCC(=O)Nc1ccccc1)NO [vorinostat]", 8.7],
  ["COc1ccc(Nc2ncnc3ccc(OC)cc23)cc1", 0],
  ["O[C@@H]1CCCC[C@H]1N1CCC(c2ccccc2)CC1 (racemic) [vesamicol]", 0],
  ["CC(=O)SC[C@@H](Cc1ccccc1)C(=O)NCC(=O)OCc1ccccc1 (racemic) [racecadotril]", 0],
  ["COCCOC(=O)C1=C(C)NC(C)=C(C(=O)OC(C)C)C1c1cccc([N+](=O)[O-])c1 (stereo not given) [nimodipine]", 0],
  ["Nc1cc(C(F)(F)F)c(-c2nc(N3CCOCC3)nc(N3CCOCC3)n2)cn1 [PI3K-IN-2]", 5.9]
]}
